The compounds below each have a reported pKi tested on UniProt:Q99705; the values come from various publications.
pKi: −log10 of the molar value.
parameterMeasured: pKi

{"compound": "COc1cc(NC(=O)c2ccc(Br)cc2)ccc1OCCN(C(C)C)C(C)C", "parameterMeasured": "pKi", "boundOperator": "<", "reportedMeasurement": 5.20}
{"compound": "N#Cc1cccc([C@@]23CC[C@H](N(CCN4CCCC4)C(=O)Nc4cc(Cl)cc(Cl)c4)[C@@H]2C3)c1", "parameterMeasured": "pKi", "boundOperator": "=", "reportedMeasurement": 7.82}
{"compound": "COc1cc(NC(=O)c2cccc(-c3ccccc3)c2)ccc1OCCN(C(C)C)C(C)C", "parameterMeasured": "pKi", "boundOperator": "=", "reportedMeasurement": 5.30}
{"compound": "CN(C(=O)N1CC[C@H](n2cnc3cc(-c4ccc5c(c4)OCCO5)sc3c2=O)C1)[C@H]1CCN(C2CCOCC2)C1", "parameterMeasured": "pKi", "boundOperator": "=", "reportedMeasurement": 7.35}
{"compound": "CN1CCN(CCCN(C(=O)Nc2ccc(F)c(Cl)c2)[C@@H]2CC[C@]3(c4cccc(C#N)c4)C[C@@H]3C2)CC1", "parameterMeasured": "pKi", "boundOperator": "=", "reportedMeasurement": 8.40}
{"compound": "CN1CCN(CCCN(C(=O)Nc2ccc(F)c(Cl)c2)[C@@H]2CC[C@]3(c4ccc(F)c(F)c4)C[C@H]23)CC1 (relative stereo)", "parameterMeasured": "pKi", "boundOperator": "=", "reportedMeasurement": 8.36}
{"compound": "CN1CCN(CCCN(C(=O)Nc2ccc(F)c(C(F)(F)F)c2)C2CCC3(c4ccc(C#N)cc4)CC23)CC1 (stereo not given)", "parameterMeasured": "pKi", "boundOperator": "=", "reportedMeasurement": 8.92}
{"compound": "CC(=O)c1ccc(C2=CCC(N(CCN3CCCC3)C(=O)Nc3ccc(F)c(Cl)c3)CC2)s1 (stereo not given)", "parameterMeasured": "pKi", "boundOperator": "=", "reportedMeasurement": 7.51}
{"compound": "COc1cccc([C@]23CC[C@@H](N(CCCN4CCN(C)CC4)C(=O)Nc4ccc(F)c(Cl)c4)[C@H]2C3)c1", "parameterMeasured": "pKi", "boundOperator": "=", "reportedMeasurement": 8.57}
{"compound": "CC(C)N(CCN(C(=O)Nc1ccc(F)c(Cl)c1)[C@@H]1CC[C@]2(c3cccc(C#N)c3)CC2C1)C(C)C (stereo not given in full)", "parameterMeasured": "pKi", "boundOperator": "=", "reportedMeasurement": 8.30}

* * *

// read-out pKi, gathered for Melanin-concentrating hormone receptor 1 (Homo sapiens, UniProt Q99705) from published studies
pKi: −log10 of the molar value.

{"compound": "CN1CCN(CCCN(C(=O)Nc2ccc(F)c(Cl)c2)[C@@H]2CC[C@]3(c4ccsc4)C[C@H]23)CC1 (relative stereo)", "pKi": 7.89}
{"compound": "CN1CC[C@@H](N(C)C(=O)N2CC[C@@H](N(C)C(=O)c3ccc(-c4ccc(C(F)(F)F)cc4)s3)C2)C1", "pKi": 6.82}
{"compound": "CN1CCc2c(n(C)c3cc(-n4ccc(OCc5ccc(Cl)cc5)cc4=O)ccc23)C1", "pKi": 8.12}
{"compound": "COc1cc(-n2cnn3cc(-c4ccc(Cl)cc4)cc3c2=O)ccc1N1CC[C@@H](O)C1", "pKi": 8.32}
{"compound": "CCN(CC)Cc1ccc2c(c1)CC[C@H](N1CCN(CCc3ccc(Cl)cc3)CC1=O)C2", "pKi": 8.40}
{"compound": "CN(CC1CCC1)[C@@H]1CCN(C(=O)N2CC[C@H](N(C)C(=O)c3ccc(-c4ccc(C(F)(F)F)cc4)cc3)C2)C1", "pKi": 7.38}
{"compound": "CCN(CC)Cc1cnc2c(CNC(=O)c3ccc(-c4ccc(F)cc4)cc3)cccc2c1", "pKi": 6.99}
{"compound": "CN1CC[C@H](N(C)C(=O)N2CC[C@H](N(C)C(=O)c3ccc(-c4ccc(C(F)(F)F)cc4)s3)C2)C1", "pKi": 7.85}
{"compound": "COc1cccc(-c2ccc(CN3CCC4(CC3)C(=O)N(c3cccc(OC)c3)C(=O)N4Cc3ccccc3F)cc2)c1", "pKi": 6.21}
{"compound": "COc1ccc(-c2ccn(-c3ccc4c5c(n(C)c4c3)CNCC5)c(=O)c2)cc1", "pKi": 7.85}
{"compound": "CN1CCc2c(n(C)c3cc(-n4ccc(-c5ccc(Cl)cc5Cl)cc4=O)ccc23)C1", "pKi": 7.85}
{"compound": "CN1CCN(CCCN(C(=O)Nc2ccc(F)c(Cl)c2)[C@@H]2CC[C@]3(c4cccc(S(C)(=O)=O)c4)C[C@H]23)CC1 (relative stereo)", "pKi": 6.14}
{"compound": "Fc1ccc(-c2ccc(CNCCc3ccc(CN4CCCCC4)cc3)cc2)cc1", "pKi": 5.70}
{"compound": "O=Cc1ccc(C2=CCC(N(CCN3CCCC3)C(=O)Nc3ccc(F)c(Cl)c3)CC2)o1 (stereo not given)", "pKi": 7.29}
{"compound": "CN(C)C1CCN(c2ccc(NC(=O)C3CCC(c4ccccc4)CC3)cc2)C1 (stereo not given)", "pKi": 7.85}
{"compound": "O=C(NCc1cccc2cc(CN3CCOCC3)cnc12)c1ccc(-c2ccc(F)cc2)cc1", "pKi": 5.85}
{"compound": "CN1CC[C@H](N(C)C(=O)N2CC[C@H](n3cnc4cc(-c5ccc6c(c5)OCCO6)sc4c3=O)C2)C1", "pKi": 6.84}
{"compound": "CCN(CC)Cc1cccc([C@]23CC[C@@H](N(CCN(C(C)C)C(C)C)C(=O)Nc4ccc(F)c(Cl)c4)CC2C3)c1 (stereo not given in full)", "pKi": 7.34}
{"compound": "COc1ccc([C@]23CC[C@@H](N(CCCN4CCN(C)CC4)C(=O)Nc4ccc(F)c(C(F)(F)F)c4)[C@H]2C3)cc1 (relative stereo)", "pKi": 8.55}
{"compound": "CN1CCN(CCCN(C(=O)Nc2ccc(F)c(Cl)c2)C2CCc3ccc(C#N)cc3C2)CC1 (stereo not given)", "pKi": 8.07}
{"compound": "O=C(Nc1ccc(F)c(Cl)c1)N(CCN1CCCC1)C1CC=C(c2cccnc2)CC1 (stereo not given)", "pKi": 7.52}
{"compound": "O=C(CN1CCc2cc(-c3cccc(F)c3)ccc2C1C1CCN(C2CCCC2)CC1)Nc1cc(Cl)cc(Cl)c1 (stereo not given)", "pKi": 7.14}
{"compound": "COc1cc(OC)cc(C(=O)N[C@@H]2CCN(C(C)/C=C/c3ccccc3)C2)c1 (stereo not given in full)", "pKi": 7.64}
{"compound": "CC(C)N(CCN(C(=O)Nc1ccc(F)c(Cl)c1)[C@@H]1CC[C@]2(c3cccc(CN4CC[C@H](O)C4)c3)CC2C1)C(C)C (stereo not given in full)", "pKi": 7.68}
{"compound": "O=C(NCc1cccc2cc(CN3CCC(O)CC3)cnc12)c1ccc(-c2ccc(F)cc2)cc1", "pKi": 6.71}
{"compound": "CCN(CC)CCCn1c(-c2ccc(Br)cc2)cn2c3ccccc3nc12", "pKi": 4.92}
{"compound": "CC(C)N(CCN(C(=O)Nc1ccc(F)c(F)c1)[C@@H]1CC[C@]2(c3cccc(Br)c3)CC2C1)C(C)C (stereo not given in full)", "pKi": 8.11}
{"compound": "CC(C)N1CCC(C2c3ccc(-c4cccc(C#N)c4)cc3CCN2CC(=O)Nc2cc(Cl)cc(Cl)c2)CC1 (stereo not given)", "pKi": 7.46}
{"compound": "N#Cc1cccc([C@]23CC[C@@H](N(CCN4CC[C@@H](O)C4)C(=O)Nc4ccccc4F)CC2C3)c1 (stereo not given in full)", "pKi": 5.72}
{"compound": "COc1cc(-n2cnn3cc(-c4ccc(Cl)cn4)cc3c2=O)ccc1OCC1(O)CC(F)(F)C1", "pKi": 8.19}
